Biological target: Calpain-2 catalytic subunit (Sus scrofa, UniProt P43367)
Sequence (P43367 whole entry): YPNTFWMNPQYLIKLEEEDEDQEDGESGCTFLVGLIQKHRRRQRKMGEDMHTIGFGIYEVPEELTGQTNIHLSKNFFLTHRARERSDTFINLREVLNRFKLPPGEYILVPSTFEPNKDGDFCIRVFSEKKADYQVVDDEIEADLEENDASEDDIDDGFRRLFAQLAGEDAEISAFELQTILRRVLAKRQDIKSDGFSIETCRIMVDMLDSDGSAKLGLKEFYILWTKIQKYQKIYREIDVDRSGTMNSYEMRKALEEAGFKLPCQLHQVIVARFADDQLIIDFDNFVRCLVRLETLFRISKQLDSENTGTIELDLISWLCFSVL
Experiment: m-calpain protease blockers, concentration series – biochemical, fluorogenic peptide substrate, dose response (AID 1420)
Format: functional
Active and inactive are the calls of the source.
QUANTITY NAME: IC50

| COMPOUND | EXPERIMENTAL SYSTEM | QUANTITY NAME | RESULT |
| --- | --- | --- | --- |
| CCOCCCNc1ccc(N2C(=O)C3CCCCC3C2=O)cc1[N+](=O)[O-] (stereo not given) | Calpain-2 catalytic subunit (Sus scrofa, UniProt P43367) | IC50 | 9.18 µM (active) |
| CCCc1nc(SCC(=O)c2ccccc2)c2c(=O)n(C)c(=O)n(C)c2n1 | Calpain-2 catalytic subunit (Sus scrofa, UniProt P43367) | IC50 | 7.89 µM (active) |
| CN1CCS/C1=C\C=C1/SC(=S)N(CC(=O)O)C1=O | Calpain-2 catalytic subunit (Sus scrofa, UniProt P43367) | IC50 | 7.69 µM (not active) |
| Cc1cc(C)c(NC(=O)COC(=O)Cc2ccsc2)c(C)c1 | Calpain-2 catalytic subunit (Sus scrofa, UniProt P43367) | IC50 | > 50 µM (not active) |
| CCCCC(CC)c1nnc(NC(=O)c2cccs2)s1 (stereo not given) | Calpain-2 catalytic subunit (Sus scrofa, UniProt P43367) | IC50 | 8.06 µM (not active) |

* * *

Assay: luciferase reporter signal suppression in cells – H4 neuroglioma cells, luminescence, dose response (AID 1990)
Assay type: functional, cell-based
The source made the active and inactive calls.

| COMPOUND | EC50 |
| --- | --- |
| O=C(C1=C(O)C(=O)N(c2nccs2)C1c1ccccc1)c1ccc2c(c1)OCCO2 (stereo not given) | 0.146 µM (active) |
| CCOc1ccc(N(CC(=O)Nc2ccccc2OCC)S(=O)(=O)c2c(C)noc2C)cc1 | 2.32 µM (active) |
| O=C(CN1C(=O)c2ccccc2S1(=O)=O)c1ccc(F)cc1 | 11.4 µM (active) |
| Cc1cccc(/C=C/C(=O)c2cc(Br)ccc(=O)c2O)c1 | 11.6 µM (active) |
| c1ccc(-c2cccc(-c3ccccn3)n2)nc1 | < 0.1 µM (active) |

* * *

Form field: AC50 (one value per entry).
Target: Cytochrome P450 1A2 (Homo sapiens, UniProt P05177);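 note: PubChem cytochrome P450 panel assay, CYP1A2 panel member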
Sequence (P05177 whole entry): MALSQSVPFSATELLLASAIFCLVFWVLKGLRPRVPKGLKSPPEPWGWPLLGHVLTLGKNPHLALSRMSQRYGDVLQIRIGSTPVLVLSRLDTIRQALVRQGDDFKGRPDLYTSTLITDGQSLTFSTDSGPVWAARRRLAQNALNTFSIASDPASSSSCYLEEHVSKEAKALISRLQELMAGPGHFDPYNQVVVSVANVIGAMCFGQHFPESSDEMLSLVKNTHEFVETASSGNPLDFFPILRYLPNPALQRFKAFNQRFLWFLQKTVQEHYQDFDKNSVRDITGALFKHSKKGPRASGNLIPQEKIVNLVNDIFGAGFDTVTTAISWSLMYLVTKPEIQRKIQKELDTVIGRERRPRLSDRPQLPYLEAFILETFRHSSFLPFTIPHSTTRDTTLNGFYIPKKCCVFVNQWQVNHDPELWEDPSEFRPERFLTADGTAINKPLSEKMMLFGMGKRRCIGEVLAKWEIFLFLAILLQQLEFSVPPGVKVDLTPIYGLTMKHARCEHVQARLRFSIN
QUANTITY NAME: AC50

| MOLECULE | RESULT |
| --- | --- |
| O=C(Nc1ccn(Cc2ccccc2F)n1)c1ccc(COc2cc(Cl)ccc2Cl)o1 | 3.55 µM (inconclusive) |
| COc1cc(-c2nnc(SC/C=C/c3ccccc3)n2N)cc(OC)c1OC | 14.1 µM (inconclusive) |
| COC(=O)[C@@]1(Cc2ccc(F)cc2)[C@H]2c3cc(C(=O)N4CCCC4)n(Cc4ccc(S(C)(=O)=O)cc4)c3C[C@H]2CN1C(=O)c1ccccc1 | 15.8 µM (inconclusive) |
| CCC(C)NC(=O)c1c(C)cc(=O)oc1C (centres undefined) | 28.2 µM (inconclusive) |
| COC(=O)[C@H](C)[C@@H]1C[C@@]1(C)[C@@H](NC(=O)OCc1ccccc1)c1ccccc1 | 15.8 µM (inconclusive) |
| C/C(CC(=O)Nc1cc(Cl)ccc1Cl)=N\NC(N)=S | 12.6 µM (inconclusive) |
| CCOC(=O)N1CCN(C(=O)c2ccc3c(=O)n(-c4ccc(OC)cc4)c(=S)[nH]c3c2)CC1 | 39.8 µM (inconclusive) |
| COCCn1c(=O)c(-c2ccc(OC)cc2)nc2cnc(Nc3cccc(OC)c3)nc21 | 10 µM (inconclusive) |
| Cn1c(=O)c(-c2ccc(Cl)cc2)nc2cnc(Oc3cccc(Cl)c3)nc21 | 0.251 µM (inconclusive) |

Values from ChEMBL document CHEMBL1201862
